Test system: MCF7
Assay: Antiproliferative activity against human MCF7 cells after 72 hrs by MTS assay
Format: functional, cell-based
Conditions: MCF7, 72 h
Value Type: pIC50
The meaning of pIC50 here: minus log10 of the concentration in molar units.

Query string: Fill in: pIC50 of `COc1cc2c(N3CCN(C(=S)SCC4OCCO4)CC3)ncnc2cc1OCCCN1CCCCC1` is ___
Result string: 4.53

Query string: Fill in: pIC50 of `COc1cc2c(N3CCN(C(=S)SCc4ccccn4)CC3)ncnc2cc1OCCCN1CCCCC1` is ___
Result string: 4.68

Query string: Fill in: pIC50 of `COc1cc2c(N3CCN(C(=S)SCc4c(F)c(F)c(F)c(F)c4F)CC3)ncnc2cc1OCCCN1CCCCC1` is ___
Result string: 5.38

Query string: Fill in: pIC50 of `COc1ccc(CSC(=S)N2CCN(c3ncnc4cc(OCCCN5CCCCC5)c(OC)cc34)CC2)cc1` is ___
Result string: 5.38

Query string: Fill in: pIC50 of `COc1cc2c(N3CCN(C(=S)SCc4ccc(C#N)cc4)CC3)ncnc2cc1OCCCN1CCCCC1` is ___
Result string: 5.00

---

The entries below are paired with their reported IC50.
System: A549
Experiment: Antiproliferative activity against human A549 cells after 72 hrs by MTS assay
Type: functional, cell-based
Details: A549, 72 h
Numeric only. Scale: µM

Structure Notation: COc1cc2c(N3CCN(C(=S)SC(C)C)CC3)ncnc2cc1OCCCN1CCCCC1
Observed Result: 11.3

Query string: Fill in: IC50 of `CCCSC(=S)N1CCN(c2ncnc3cc(OCCCN4CCCCC4)c(OC)cc23)CC1` is ___
Result string: 8.07

Query string: Fill in: IC50 of `COc1cc2c(N3CCN(C(=S)SCc4ccc(C#N)cc4)CC3)ncnc2cc1OCCCN1CCCCC1` is ___
Result string: 9.52

---

The entries below are paired with their reported pIC50.
System: A549
Test: Antiproliferative activity against human A549 cells after 72 hrs by MTS assay
Type: functional, cell-based
Settings: A549, 72 h
The meaning of pIC50 here: minus log10 of the concentration in molar units.

Structure Notation: COc1cc2c(N3CCN(C(=S)SCc4ccccc4)CC3)ncnc2cc1OCCCN1CCCCC1
pIC50: 4.80

Query string: Fill in: pIC50 of `COc1cc2c(N3CCN(C(=S)SCc4ccsc4)CC3)ncnc2cc1OCCCN1CCCCC1` is ___
Result string: 5.32

Query string: Fill in: pIC50 of `COc1cc2c(N3CCN(C(=S)SCc4ccccn4)CC3)ncnc2cc1OCCCN1CCCCC1` is ___
Result string: 4.54

Query string: Fill in: pIC50 of `COc1cccc(CSC(=S)N2CCN(c3ncnc4cc(OCCCN5CCCCC5)c(OC)cc34)CC2)c1` is ___
Result string: 5.34

Query string: Fill in: pIC50 of `COc1cc2c(N3CCN(C(=S)SCc4ccc(F)c(F)c4)CC3)ncnc2cc1OCCCN1CCCCC1` is ___
Result string: 5.31

Query string: Fill in: pIC50 of `COc1cc2c(N3CCN(C(=O)Nc4ccc(OC(C)C)cc4)CC3)ncnc2cc1OCCCN1CCCCC1` is ___
Result string: 4.83

---

The entries below are paired with their reported pIC50.
Test system: MCF7
Experiment: Antiproliferative activity against human MCF7 cells after 72 hrs by MTS assay
Type: functional, cell-based
Conditions: MCF7, 72 h
The meaning of pIC50 here: minus log10 of the concentration in molar units.

Please review the following examples before continuing.
Structure Notation: COc1cc2c(N3CCN(C(=S)SCc4ccc(Cl)cc4)CC3)ncnc2cc1OCCCN1CCCCC1
pIC50: 5.40
--
Structure Notation: COc1cc2c(N3CCN(C(=S)SCc4ccc(C)cc4)CC3)ncnc2cc1OCCCN1CCCCC1
pIC50: 5.43
--
Structure Notation: COc1cc2c(N3CCN(C(=S)SCC4CCCCC4)CC3)ncnc2cc1OCCCN1CCCCC1
pIC50: 5.40
--
Structure Notation: CCCSC(=S)N1CCN(c2ncnc3cc(OCCCN4CCCCC4)c(OC)cc23)CC1
pIC50: 4.98
--
Structure Notation: COc1cc2c(N3CCN(C(=O)Nc4ccc(OC(C)C)cc4)CC3)ncnc2cc1OCCCN1CCCCC1
pIC50: 4.83
--
Structure Notation: COc1cc2c(N3CCN(C(=S)SCc4ccc(F)cc4)CC3)ncnc2cc1OCCCN1CCCCC1
pIC50: 5.38

Shifting focus to the molecule that follows.
Query string: What measured pIC50 is associated with `COc1cc2c(N3CCN(C(=S)SCc4ccc(F)c(F)c4)CC3)ncnc2cc1OCCCN1CCCCC1` on MCF7?
Result string: 5.51
